In this section, each of the compounds is paired with its reported pIC50.
Target: SARS-CoV-1 Mpro (Severe acute respiratory syndrome coronavirus, UniProt P0C6X7)
Experiment: biochemical
pIC50: −log10 of the molar value.

- Structure smiles string: "CC1(C)[C@@H]2[C@@H](C(=O)N[C@H](C=O)C[C@@H]3CCNC3=O)N(C(=O)c3cc4ccc(C#N)cc4[nH]3)C[C@@H]21"
  pIC50: 7.21
- Structure smiles string: "CC1(C)[C@@H]2[C@@H](C(=O)N[C@H](C=O)C[C@@H]3CCNC3=O)N(C(=O)c3cc4c(F)ccc(F)c4[nH]3)C[C@@H]21"
  pIC50: 7.42
- Structure smiles string: "CO[C@H]1C[C@@H](C(=O)N[C@H](C=O)C[C@@H]2CCNC2=O)N(C(=O)c2cc3ccccc3[nH]2)C1"
  pIC50: 6.69
- Structure smiles string: "CC1(C)[C@@H]2[C@@H](C(=O)N[C@H](C#N)C[C@@H]3CCNC3=O)N(C(=O)C3(c4ccccc4)CC3)C[C@@H]21"
  pIC50: 6.24
- Structure smiles string: "Cc1cccc([C@@H](C)C(=O)N2C[C@H]3[C@@H]([C@H]2C(=O)N[C@H](C=O)C[C@@H]2CCNC2=O)C3(C)C)c1"
  pIC50: 7.89
- Structure smiles string: "N#Cc1cccc2cc(C(=O)N3C[C@H](C4CCCCC4)C[C@H]3C(=O)N[C@H](C=O)C[C@@H]3CCNC3=O)[nH]c12"
  pIC50: 7.18
- Structure smiles string: "Cc1ccc2cc(C(=O)N3C[C@H]4[C@@H]([C@H]3C(=O)N[C@H](C=O)C[C@@H]3CCNC3=O)C4(C)C)[nH]c2c1C"
  pIC50: 7.47
- Structure smiles string: "CC1(C)[C@@H]2[C@@H](C(=O)N[C@H](C=O)C[C@@H]3CCNC3=O)N(C(=O)CC3CCC(F)(F)CC3)C[C@@H]21"
  pIC50: 7.63

---

Biological target: HCoV-229E Mpro (Human coronavirus 229E)
Sequence (P0C6X1 2966-3267 limits assumed): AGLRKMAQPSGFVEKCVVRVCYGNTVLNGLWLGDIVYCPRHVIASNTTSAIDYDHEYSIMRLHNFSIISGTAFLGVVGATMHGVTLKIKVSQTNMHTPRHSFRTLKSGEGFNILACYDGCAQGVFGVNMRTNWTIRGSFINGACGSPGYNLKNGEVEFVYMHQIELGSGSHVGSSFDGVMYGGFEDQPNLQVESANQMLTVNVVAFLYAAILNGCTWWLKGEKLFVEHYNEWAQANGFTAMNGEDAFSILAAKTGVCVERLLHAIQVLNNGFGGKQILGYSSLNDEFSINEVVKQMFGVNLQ
Assay: HCoV-229E Mpro enzymatic inhibition assay (fluorescence)
Format: biochemical
pIC50: −log10 of the molar value.
Quantity kind: pIC50

- Compound: "CC1(C)[C@@H]2[C@@H](C(=O)N[C@H](C=O)C[C@@H]3CCNC3=O)N(C(=O)C3(c4cccc(Cl)c4)CC3)C[C@@H]21"
  Obs value: 7.66
- Compound: "CC1CC(C(=O)N2C[C@H]3[C@@H]([C@H]2C(=O)N[C@H](C=O)C[C@@H]2CCNC2=O)C3(C)C)C1 (stereo partly drawn)"
  Obs value: 6.98
- Compound: "CC1(C)[C@@H]2[C@@H](C(=O)N[C@H](C=O)C[C@@H]3CCNC3=O)N(C(=O)c3cc4cccc(Cl)c4[nH]3)C[C@@H]21"
  Obs value: 7.47

Entry source: patent US20260355212A1
